Where these numbers come from: PubChem BioAssay

Recorded z-score for the following molecules
assay-details: HepG2 liver cancer cell viability effects, profiling panel, resazurin fluorescence, 24 h, PK04 Diversity Set (AID 1172); also: test concentration not given here
study-conditions: higher = more signal
Respond with the number and no other words.

Dear colleague, I am looking for the recorded z-score of the following molecule: "CCOC(=O)NN=C1C[C@@H](O)[C@@H](O)[C@@H]2[C@@H]3C(=O)N(C4CCCCC4)C(=O)[C@@H]3CC[C@@H]12"
-0.252

Dear colleague, I am looking for the recorded z-score of the following molecule: COC(=O)[C@@H]1CC[C@H](C)[C@@H](c2ccc(C)cc2)N1C(=O)c1ccc(C=NOC(C)CN2CCCCc3nc(C)c(C)cc32)cc1 (some centres not stated)
1.03

Dear colleague, I am looking for the recorded z-score of the following molecule: "C#CCCCON=C1C[C@@H](O)[C@@H](O)[C@@H]2[C@@H]3C(=O)N(Cc4ccccc4)C(=O)[C@@H]3CC[C@H]12"
1.02

Dear colleague, I am looking for the recorded z-score of the following molecule: "CCN1C(=O)[C@H]2[C@H]3[C@H](O)C=CC(=O)[C@@H]3CC[C@H]2C1=O"
0.384

Dear colleague, I am looking for the recorded z-score of the following molecule: "Cc1cc2c(c(=O)o1)[C@H](O)[C@H]1O[C@H]1C2=O"
0.145

Dear colleague, I am looking for the recorded z-score of the following molecule: "COc1ccc(COC(=O)NN=C2C[C@@H](O)[C@@H](O)[C@@H]3[C@@H]4C(=O)N(c5ccc(F)cc5F)C(=O)[C@@H]4CC[C@@H]23)cc1"
0.631

Please examine the following record next.
Dear colleague, I am looking for the recorded z-score of the following molecule: COc1ccc(O[C@H]2C=C[C@@H](c3ccccc3)O[C@@H]2COC(=O)CCC(C)=NOC(C)CN2CCCCc3nc(C)c(C)cc32)cc1 (some centres not stated)
0.957

###

Test system: Inhibin beta A chain (activin A)
assay-details: INHBA (activin A) binders on microarrays, primary screen, biochemical, small-molecule microarray, 635 nm fluorescence scan (AID 1107);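 also: mouse activin A protein probed at 4.33 µg/mL on printed slides; score merges bound-protein fluorescence near 667 nm with spot signal-to-noise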
study-conditions: small-molecule microarray binding, higher = more signal
Recorded composite z-score for the following compounds
Respond with the number and no other words.

Known composite z-score results, listed for orientation:
Dear colleague, I am looking for the recorded composite z-score of the following compound: "CC(C)CN1CCc2nc(-c3ccccc3)c3c(c2CC1)CO[C@@H](C)C3"
0.157

Dear colleague, I am looking for the recorded composite z-score of the following compound: "COCCOC(=O)N1C(=O)[C@@]2(c3cc(C#CC4(O)CCCCCC4)ccc31)[C@H](c1ccc(OCCO)cc1)N1[C@H](c3ccccc3)[C@H](c3ccccc3)OC(=O)[C@H]1[C@@H]2C(=O)NC[C@H](O)c1ccccc1"
0.527

Dear colleague, I am looking for the recorded composite z-score of the following compound: "COC(=O)C1=C(C)N(Cc2ccccc2)[C@]23O[C@](C(=O)OC)(C(=O)N2[C@@H]1c1ccccc1)[C@H]1CCOC(=O)[C@H]13"
0.521

Others:
Dear colleague, I am looking for the recorded composite z-score of the following compound: "C#CCCCON=C1C[C@@H](O)[C@@H](O)[C@@H]2[C@@H]3C(=O)N([C@@H](C)c4ccccc4)C(=O)[C@@H]3CC[C@H]12"
0.551

Dear colleague, I am looking for the recorded composite z-score of the following compound: "COc1ccc(CCNC(=O)[C@@H]2c3ccccc3C(=O)N(c3ccc(C)cn3)[C@H]2c2ccc(CO)cc2)cc1"
-0.082

Dear colleague, I am looking for the recorded composite z-score of the following compound: "COC(=O)[C@]1(CO)N=C(c2ccc(OCCCO)cc2)O[C@@H]1c1ccccc1N=[N+]=[N-]"
0.653

Dear colleague, I am looking for the recorded composite z-score of the following compound: "CC(C)=CCCC(C)=CCON=C1[C@H]2CCn3c(=O)n(Cc4cc5c(cc4Cl)OCO5)c(=O)n3[C@H]2[C@H](O)[C@@H]2O[C@H]12"
1.27

###

assay-details: small-molecule binders of probe aInhba, primary screen, biochemical, small-molecule microarray, 635/667 nm fluorescence (AID 1148);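 also: score merges 667nm spot fluorescence with signal-to-noise for antibody binding to printed compounds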
study-conditions: higher = more signal
# binarize composite z-score: threshold -0.07 inclusive, high side TRUE, low side FALSE

Would you please look over these solved cases?
Check this compound for composite z-score at or above -0.07: "O=C1[C@H]2[C@H]3[C@H](O)[C@H](O)CC(=NOCc4ccccc4)[C@H]3CC[C@H]2C(=O)N1c1cccc(Oc2ccccc2)c1"
TRUE

Check this compound for composite z-score at or above -0.07: "CCOC(=O)NN=C1C[C@@H](O)[C@@H](O)[C@@H]2[C@@H]3C(=O)N(C4CCCCC4)C(=O)[C@@H]3CC[C@H]12"
FALSE

Check this compound for composite z-score at or above -0.07: "Cc1ccc(S[C@]2(C(=O)NCC(F)(F)F)CC(=O)N(Cc3ccccc3Cl)[C@@H]2c2ccc(CO)cc2I)cc1"
FALSE

Check this compound for composite z-score at or above -0.07: "CCN1C(=O)[C@H]2[C@H]3[C@H](O)[C@H](O)CC(=NOCc4ccccc4)[C@@H]3CC[C@H]2C1=O"
TRUE

Others:
Check this compound for composite z-score at or above -0.07: "[N-]=[N+]=Nc1ccccc1C[C@@]1(C(N)=O)N=C(c2ccc(OCCCO)cc2)O[C@@H]1c1ccccc1"
TRUE

###

assay-details: binders of probe aHhip on microarray, primary screen, stem cell growth factor project, biochemical, small-molecule microarray, fluorescence 635/667 (AID 1087);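 also: score merges spot fluorescence at 667nm with spot signal to noise ratio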
study-conditions: higher = more signal
endpoint: composite z-score
Respond with the number and no other words.

Dear colleague, I am looking for the recorded composite z-score of the following compound: Cc1ccc(C2CC=C(C(=O)O)CN2S(=O)(=O)c2ccc(C)cc2)cc1 (stereo not drawn)
0.0749

Dear colleague, I am looking for the recorded composite z-score of the following compound: "C#C[C@@H](CC)O[Si](C#Cc1ccc(Oc2ccccc2)cc1)(C(C)C)C(C)C"
-0.0193

Dear colleague, I am looking for the recorded composite z-score of the following compound: CCOC(=O)[C@H](Cc1ccccc1)NC(=O)CCC1CC(OC(=O)NCc2ccc3c(c2)OCO3)CC2(CCCC(COC(=O)NCc3ccccc3)O2)O1 (stereo partly drawn)
0.0505

Dear colleague, I am looking for the recorded composite z-score of the following compound: "CO[C@H]1O[C@H](CO)[C@@H](OC(=O)Nc2ccc(C#N)cc2)[C@H](OC(=O)c2cc3ccccc3[nH]2)[C@H]1OC(=O)c1cc2ccccc2[nH]1"
-0.0645

Dear colleague, I am looking for the recorded composite z-score of the following compound: "[N-]=[N+]=Nc1ccccc1C[C@@]1(C(N)=O)N=C(c2ccc(OCCCO)cc2)O[C@@H]1c1ccccc1"
-0.181

Dear colleague, I am looking for the recorded composite z-score of the following compound: "COC(=O)C1=C(C)[C@@H](O)[C@@H](C)[C@H](c2c(OC)c(OC)c(C)c(OC)c2OC)O1"
-0.0645

Dear colleague, I am looking for the recorded composite z-score of the following compound: "COC(=O)CC=C[C@@H](C)[C@@H](C=NO[C@H](C)c1cn([C@@H]2COC[C@H]2O)nn1)OC"
0.0024

Dear colleague, I am looking for the recorded composite z-score of the following compound: "COc1ccc(O[C@H]2C=C[C@@H](c3ccccc3)O[C@@H]2COC(=O)CCC(C)=NOCC[C@@H]2C=C[C@H](OC(C)=O)[C@@H](COC(C)=O)O2)cc1"
0.305

Others:
Dear colleague, I am looking for the recorded composite z-score of the following compound: "COc1ccccc1CN1C(=O)c2ccccc2[C@@]2(Cc3ccccc3N(C(C)C)C2=O)[C@@H]1c1ccc(CO)cc1"
-0.374

Dear colleague, I am looking for the recorded composite z-score of the following compound: "C=C(CCCC)C(=O)CC[C@@H](OC(C)=O)c1cccc(OCCO)c1"
-0.0994

Dear colleague, I am looking for the recorded composite z-score of the following compound: "COCCCNC(=O)[C@@]1(C)c2ccccc2C(=O)N(Cc2ccc(OC(F)(F)F)cc2)[C@H]1c1ccc(CO)cc1"
0.213

Dear colleague, I am looking for the recorded composite z-score of the following compound: "CC=CC1=C(CO)[C@H](O)[C@H]2O[C@H]2[C@H]1O"
0.0881

Dear colleague, I am looking for the recorded composite z-score of the following compound: "COc1ccc([Si](C)(C)[C@H]2[C@H](CC(=O)N3CCC[C@H]3CO)O[C@@]3(C(=O)N(Cc4cccc(N5C(=O)COc6ccccc65)c4)c4ccccc43)[C@@H]2C)cc1"
-0.0994

###

assay-details: MM1S myeloma cell viability, profiling panel, resazurin fluorescence, basal, 24 h, PK04 Diversity Set (AID 1174);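 also: MM1S multiple myeloma cell line; test concentration not given here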
study-conditions: higher = more signal, called active from +8 up or from −8 down
# binarize z-score: threshold -0.008 inclusive, high side true (1), low side false (0)

Would you please look over these solved cases?
Check this molecule for z-score at or above -0.008: "CCOC(=O)CCN1C(=O)[C@H]2[C@H]3[C@H](O)[C@H](O)CC(=NOC[C@@H](O)COCc4ccco4)[C@H]3CC[C@H]2C1=O"
false (0)

Check this molecule for z-score at or above -0.008: "CO[C@@H]1COC(=O)CC=C[C@@H](C)[C@@H]2C=C[C@@H](O)[C@@H](COC(=O)CC=C[C@H]1C)O2"
true (1)

Check this molecule for z-score at or above -0.008: "O=C1[C@H]2[C@H]3[C@H](O)[C@H](O)CC(=NO[C@@H]4O[C@H](CO)[C@@H](O)[C@H](O)[C@H]4O)[C@@H]3CC[C@H]2C(=O)N1Cc1ccc2c(c1)OCO2"
true (1)

Check this molecule for z-score at or above -0.008: "C[C@@H]1C=CCC(=O)OC[C@H](C)C(=O)OC[C@H]2O[C@H]1C=C[C@H]2O"
true (1)

Check this molecule for z-score at or above -0.008: "CO[C@@H]1COC(=O)[C@@H]2CCCN2C(=O)[C@@H](C)COC(=O)[C@H](COCc2ccccc2)NC(=O)CC=C[C@H]1C"
false (0)

Others:
Check this molecule for z-score at or above -0.008: CC(CCN1CCCCc2nc(C)c(C)cc21)=NOC(C)CN1CCCc2nc(C)c(C)cc21 (configuration not stated)
false (0)
